Recorded measurements of pIC50, one per entry
Test system: A-431
Assay: Cytotoxicity against epidermoid carcinoma A431 cell line
Assay type: functional, cell-based
Settings: Homo sapiens
pIC50: −log10 of the molar value.
property: pIC50

>>> assayresult("COC(=O)c1c(OCCN(C)C)c2ccccc2c2oc3c(c12)C(=O)c1ccccc1C3=O")
5.96
>>> assayresult("COC(=O)c1c(OCCN2CCCCC2)c2ccccc2c2oc3c(c12)C(=O)c1ccccc1C3=O")
5.37
>>> assayresult("COC(=O)c1c(OCCN2CCCC2)c2ccccc2c2oc3c(c12)C(=O)c1ccccc1C3=O")
5.96
>>> assayresult("CCN(CC)CCOc1c(C(=O)OC)c2c3c(oc2c2ccccc12)C(=O)c1ccccc1C3=O")
5.77
